# tested_system: USP28 (USP28-5(1-1077)-TEV-6*His; LifeSensors) (Homo sapiens, UniProt Q96RU2)
# Construct: construct USP28 (USP28-5(1-1077)-TEV-6*His; LifeSensors); TEV cleavage site (C); 6xHis (C); purchased LifeSensors
# Sequence (Q96RU2 whole entry): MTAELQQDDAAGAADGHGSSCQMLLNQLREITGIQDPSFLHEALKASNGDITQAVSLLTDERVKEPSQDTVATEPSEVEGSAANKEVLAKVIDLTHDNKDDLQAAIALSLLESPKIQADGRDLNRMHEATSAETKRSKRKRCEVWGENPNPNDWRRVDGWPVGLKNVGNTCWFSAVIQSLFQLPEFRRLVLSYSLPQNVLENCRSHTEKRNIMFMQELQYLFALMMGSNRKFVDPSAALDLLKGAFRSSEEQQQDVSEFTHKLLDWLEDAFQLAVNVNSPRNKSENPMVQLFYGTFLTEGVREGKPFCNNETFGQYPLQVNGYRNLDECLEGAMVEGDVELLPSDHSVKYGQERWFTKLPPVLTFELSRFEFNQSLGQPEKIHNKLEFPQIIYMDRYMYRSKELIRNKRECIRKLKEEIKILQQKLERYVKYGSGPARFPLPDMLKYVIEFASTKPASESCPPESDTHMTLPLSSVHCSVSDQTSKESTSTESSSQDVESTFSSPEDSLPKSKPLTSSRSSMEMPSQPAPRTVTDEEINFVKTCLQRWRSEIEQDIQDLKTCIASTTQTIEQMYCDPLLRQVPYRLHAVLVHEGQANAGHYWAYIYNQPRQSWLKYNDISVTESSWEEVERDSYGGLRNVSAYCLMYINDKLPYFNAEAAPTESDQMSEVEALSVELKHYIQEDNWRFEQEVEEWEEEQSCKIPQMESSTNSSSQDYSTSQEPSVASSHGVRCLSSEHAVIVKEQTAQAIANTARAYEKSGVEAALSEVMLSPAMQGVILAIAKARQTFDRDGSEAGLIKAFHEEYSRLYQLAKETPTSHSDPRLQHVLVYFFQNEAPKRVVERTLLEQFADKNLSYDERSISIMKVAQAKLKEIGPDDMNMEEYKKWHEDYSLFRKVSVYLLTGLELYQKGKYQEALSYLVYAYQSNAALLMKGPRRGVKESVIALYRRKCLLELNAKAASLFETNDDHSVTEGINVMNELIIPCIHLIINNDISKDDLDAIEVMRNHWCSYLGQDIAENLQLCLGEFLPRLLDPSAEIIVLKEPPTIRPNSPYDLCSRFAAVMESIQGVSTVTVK
# protocol_description: Ubiquitin-Rhodamine 110 Assay for USP28 Activity, Example A-1(b)
# Format: biochemical
# assay_conditions: Ub-Rh110 assay, Example A-1(b)
metric: USP28 A-1(b) IC50 range

compound="Cc1nc2sc(C(=O)N[C@H]3COc4cc(N5CC6CC(C5)N6)ccc4C3)c(N)c2s1 [Example 2-26]" value_reported="++ (0.2-2 μM)"
compound="Cc1ccc2c(N)c(C(=O)N[C@H]3COc4cc(N5CCN[C@@H](C)[C@@H]5C)ccc4C3)sc2n1 (single isomer, unassigned) [Example 1-13]" value_reported="++ (0.2-2 μM)"
compound="Cc1ccc2c(N)c(C(=O)N[C@@H]3COc4c(ccc(N5CCNCC5)c4F)C3)sc2n1 [Example 1-34]" value_reported="+ (>2 μM)"
compound="Cc1cc(C(F)(F)F)c2c(N)c(C(=O)N[C@H]3COc4cc(N5CC6CNCC(C5)C6(F)F)ccc4C3)sc2n1 [Example 2-22]" value_reported="++++ (0.001-0.05 μM)"
compound="Cc1ccc2c(N)c(C(=O)N[C@H]3COc4cc(N5CC6CC(C5)N6)cc(F)c4C3)sc2n1 (single isomer, unassigned) [Example 1-42]" value_reported="+ (>2 μM)"
compound="Cc1ccc2c(N)c(C(=O)N[C@H]3COc4cc(N5CCN[C@H](C)C5)ccc4C3)sc2n1 [Example 2-9]" value_reported="++ (0.2-2 μM)"
compound="Cc1ccc2c(N)c(C(=O)N[C@H]3COc4cc(N5CC6CNCC(C5)C6(F)F)c(C#N)cc4C3)sc2n1 [Example 2-33]" value_reported="++++ (0.001-0.05 μM)"
compound="Cc1cnc2c(N)c(C(=O)N[C@H]3CCc4cc(N5CCNCC5)c(C)cc4C3)sc2n1 (single isomer, unassigned) [Example 2-34]" value_reported="++ (0.2-2 μM)"
compound="Cc1nc2sc(C(=O)N[C@H]3COc4cc(N5CC6CCC(C5)N6)ccc4C3)c(N)c2s1 [Example 1-23]" value_reported="++ (0.2-2 μM)"
compound="Cc1ccc2c(N)c(C(=O)N[C@H]3COc4cc(N5CCNCC5)c(OC(F)(F)F)cc4C3)sc2n1 (single isomer, unassigned) [Example 1-31]" value_reported="+ (>2 μM)"
compound="Cc1ccc2c(N)c(C(=O)N[C@H]3COc4cc(N5CCN[C@@H](C)C5)ccc4C3)sc2n1 [Example 2-8]" value_reported="++ (0.2-2 μM)"
compound="Cc1cnc2c(N)c(C(=O)N[C@@H]3COc4cc(N5CCNCC5)ccc4C3)sc2n1 (single isomer, unassigned) [Example 1-22]" value_reported="+ (>2 μM)"
compound="Cc1cc(C(F)(F)F)c2c(N)c(C(=O)N[C@H]3COc4cc(N5CC6CC(C5)N6)ccc4C3)sc2n1 [Example 2-21]" value_reported="++ (0.2-2 μM)"
compound="Cc1nc2sc(C(=O)N[C@@H]3COc4cc(N5CCNCC5)ccc4C3)c(N)c2cc1F (single isomer, unassigned) [Example 1-16]" value_reported="+ (>2 μM)"
compound="Cc1nc2sc(C(=O)N[C@@H]3COc4cc(N5CC6CCC(C5)N6)cc(F)c4C3)c(N)c2s1 (single isomer, unassigned) [Example 1-40]" value_reported="+ (>2 μM)"
